# credit: ChEMBL document CHEMBL1671683

- METHOD DESCRIPTION: Volume of distribution at steady state in two-compartment pharmacokinetic/pharmacodynamic model at 400 mg, bid administered as 0.5 hrs infusion
- Format: ADME, organism-based
- DETAILS: iv, read-out: Vdss
PROPERTY: Vd (L)
Numbers only, in L.

Which value of Vd has been reported for CC(=O)NC[C@H]1CN(c2ccc(N3CCOCC3)c(F)c2)C(=O)O1 in the records? 112

###

- METHOD DESCRIPTION: in vitro
- DETAILS: two-compartment pharmacokinetic/pharmacodynamic model, iv, 200 mg
- Description: Terminal half-life in two-compartment pharmacokinetic/pharmacodynamic model at 200 mg, bid administered as 0.5 hr infusion over 24 hrs
PROPERTY: half-life (min)
Answers are plain numbers, in min.

Which value of half-life has been reported for CC(=O)NC[C@H]1CN(c2ccc(N3CCOCC3)c(F)c2)C(=O)O1 in the records? 376

###

- METHOD DESCRIPTION: Mean residence time in two-compartment pharmacokinetic/pharmacodynamic model at 200 mg, bid administered as 0.5 hr infusion over 24 hrs
- Type: ADME, organism-based
- DETAILS: in vivo, iv
PROPERTY: MRT (h)
Give bare numbers, in h.

Which value of MRT has been reported for CC(=O)NC[C@H]1CN(c2ccc(N3CCOCC3)c(F)c2)C(=O)O1 in the records? 7.95

###

- METHOD DESCRIPTION: Apparent volume of distribution in two-compartment pharmacokinetic/pharmacodynamic model at 400 mg, bid administered as 0.5 hrs infusion
- Assay type: ADME, organism-based
- DETAILS: iv
PROPERTY: Vd (L)
Numbers only, in L.

Which value of Vd has been reported for CC(=O)NC[C@H]1CN(c2ccc(N3CCOCC3)c(F)c2)C(=O)O1 in the records? 130

###

- METHOD DESCRIPTION: Cmax in two-compartment pharmacokinetic/pharmacodynamic model at 200 mg, bid administered as 0.5 hrs infusion
- Assay type: ADME, organism-based
- Parameters: dose 200 mg
- DETAILS: iv
PROPERTY: Cmax
State the value with its unit after it.

Which value of Cmax has been reported for CC(=O)NC[C@H]1CN(c2ccc(N3CCOCC3)c(F)c2)C(=O)O1 in the records? 4380 ng/mL

###

- METHOD DESCRIPTION: Volume of distribution at steady state in two-compartment pharmacokinetic/pharmacodynamic model at 200 mg, bid administered as 0.5 hr infusion over 24 hrs
- Format: ADME, organism-based
- DETAILS: iv, read-out: Vdss
PROPERTY: Vd (L)
Give bare numbers, in L.

Which value of Vd has been reported for CC(=O)NC[C@H]1CN(c2ccc(N3CCOCC3)c(F)c2)C(=O)O1 in the records? 117

###

- METHOD DESCRIPTION: Total clearance in two-compartment pharmacokinetic/pharmacodynamic model at 600 mg, bid administered as 0.5 hrs infusion
- Assay type: ADME, organism-based
- DETAILS: iv
PROPERTY: clearance
State the value with its unit after it.

Which value of clearance has been reported for CC(=O)NC[C@H]1CN(c2ccc(N3CCOCC3)c(F)c2)C(=O)O1 in the records? 232 mL/min
